System: HeLa
Assay: Primary qHTS to identify gynecologic anti-cancer compounds using libraries of approved drugs and bioactive compounds (AID 1345084); further: nearly all actives have a fitted effect of over 55% in size
Conditions: Gynecologic cancer cell panel viability, ATPlite luminescence, 48 h; series mostly up to 57.5 µM
Records with an inconclusive call do not appear. Activity calls are given as the source filed them. The call rests on the fitted dose curve; in most records, active means well fitted cell-killing curve with a large enough effect; inconclusive means small, poorly fitted or top-dose-only effect, or effect the other way; inactive means flat fitted curve, though single readings scatter.
Labels: 1 (active), 0 (inactive)

- compound: "COc1cc2c3cc1Oc1cc(ccc1O)C[C@@H]1c4c(cc(OC)c(O)c4Oc4ccc(cc4)C[C@@H]3N(C)CC2)CC[N+]1(C)C"
  answerLabel: 0
- compound: "CN(CCCOc1ccc(Cc2ccccc2)cc1)CCC(=O)O"
  answerLabel: 0
- compound: "CCCSc1ccc2nc(NC(=O)OC)[nH]c2c1"
  answerLabel: 1
- compound: "CC(C(=O)O)c1ccc(C(=O)c2ccccc2)s1 (configuration not stated)"
  answerLabel: 0
- compound: "O=C(Nc1ccc(C(=O)O)c(O)c1)c1ccccc1"
  answerLabel: 0
- compound: "Cc1ccc(C(=O)c2ccc(CC(=O)O)n2C)cc1"
  answerLabel: 0
- compound: "O=C1CN(/N=C/c2ccc([N+](=O)[O-])o2)C(=O)N1"
  answerLabel: 0
- compound: "Fc1ccc2[nH]c(CN3CCN(c4ccccn4)CC3)cc2c1"
  answerLabel: 0
- compound: "COC(=O)c1nc(Cl)c(Cl)nc1N"
  answerLabel: 1
- compound: "CCCCCCCC/C=C/C(=O)O"
  answerLabel: 0
- compound: "O=C(/C=C/c1ccccc1)NCCO"
  answerLabel: 0
- compound: "O=C(O)[C@H](CC(=O)N1C[C@H]2CCCC[C@H]2C1)Cc1ccccc1"
  answerLabel: 0

----------
Biological target: Protein phosphatase 1D (Homo sapiens) (UniProt O15297)
Sequence (O15297 whole entry, looked up): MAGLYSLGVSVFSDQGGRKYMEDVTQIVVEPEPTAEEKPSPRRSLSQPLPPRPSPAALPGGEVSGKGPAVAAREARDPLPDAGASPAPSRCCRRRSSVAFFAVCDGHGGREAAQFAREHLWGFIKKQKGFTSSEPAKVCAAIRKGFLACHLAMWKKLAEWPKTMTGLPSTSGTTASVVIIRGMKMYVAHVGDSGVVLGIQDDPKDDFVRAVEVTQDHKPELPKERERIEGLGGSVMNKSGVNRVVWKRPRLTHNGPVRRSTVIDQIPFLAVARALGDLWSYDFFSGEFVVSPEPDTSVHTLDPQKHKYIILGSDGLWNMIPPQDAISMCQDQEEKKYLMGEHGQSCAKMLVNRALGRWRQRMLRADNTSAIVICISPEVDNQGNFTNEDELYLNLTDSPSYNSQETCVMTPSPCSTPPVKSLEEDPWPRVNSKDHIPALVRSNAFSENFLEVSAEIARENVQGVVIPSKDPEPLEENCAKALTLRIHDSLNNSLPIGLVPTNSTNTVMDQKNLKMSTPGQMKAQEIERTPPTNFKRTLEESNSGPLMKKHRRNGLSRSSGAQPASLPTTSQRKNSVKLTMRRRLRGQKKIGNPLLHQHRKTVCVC
Experiment: RapidFire Mass Spectrometry qHTS Assay for Modulators of WT P53-Induced Phosphatase 1 (WIP1) (AID 1347424);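 further: amount of dephosphorylated VEPPL-S-QETFS peptide product formed by WIP1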
Details: WIP1 dephosphorylation of phosphopeptide, RapidFire MS; series mostly up to 63 µM
Records with an inconclusive call do not appear. Calls of active or inactive are those of the source. The call rests on the fitted dose curve; in most records, active means well fitted inhibition curve with a large enough effect; inconclusive means small, poorly fitted or top-dose-only effect; inactive means no such curve, though single readings can be large or run the other way.
Classes used: Y = active, N = inactive

- molecule: "Cc1c(Nc2ncccc2C(=O)O)cccc1C(F)(F)F"
  targetOrSystem: "Protein phosphatase 1D (Homo sapiens) (UniProt O15297)"
  answerLabel: "N"
- molecule: "O=C(CCN1CCN(CCO)CC1)N1c2ccccc2Sc2ccc(C(F)(F)F)cc21"
  targetOrSystem: "Protein phosphatase 1D (Homo sapiens) (UniProt O15297)"
  answerLabel: "N"
- molecule: "CCOC(=O)c1ccccc1O"
  targetOrSystem: "Protein phosphatase 1D (Homo sapiens) (UniProt O15297)"
  answerLabel: "N"
- molecule: "C[N+]1(C)[C@@H]2CC(OC(=O)[C@H](CO)c3ccccc3)C[C@H]1[C@@H]1O[C@@H]12 (stereo partly specified)"
  targetOrSystem: "Protein phosphatase 1D (Homo sapiens) (UniProt O15297)"
  answerLabel: "N"
- molecule: "CN(C)CCn1nnnc1SCC1=C(C(=O)O)N2C(=O)[C@@H](NC(=O)Cc3csc(N)n3)[C@H]2SC1"
  targetOrSystem: "Protein phosphatase 1D (Homo sapiens) (UniProt O15297)"
  answerLabel: "N"
- molecule: "COC(=O)C1=C(C)NC(C)=C(C(=O)OCC(C)C)C1c1ccccc1[N+](=O)[O-] (stereo unspecified)"
  targetOrSystem: "Protein phosphatase 1D (Homo sapiens) (UniProt O15297)"
  answerLabel: "N"
- molecule: "CN1CCN(c2cc3c(nn2)Oc2ccccc2N3C)CC1"
  targetOrSystem: "Protein phosphatase 1D (Homo sapiens) (UniProt O15297)"
  answerLabel: "N"
- molecule: "CN1CC(=O)N/C1=N/C(=O)Nc1cccc(Cl)c1"
  targetOrSystem: "Protein phosphatase 1D (Homo sapiens) (UniProt O15297)"
  answerLabel: "N"
- molecule: "O=C(O)Cc1ccc2c(c1)C(=O)c1ccccc1CO2"
  targetOrSystem: "Protein phosphatase 1D (Homo sapiens) (UniProt O15297)"
  answerLabel: "N"
- molecule: "Nc1nc2ccc([N+](=O)[O-])cc2s1"
  targetOrSystem: "Protein phosphatase 1D (Homo sapiens) (UniProt O15297)"
  answerLabel: "N"
- molecule: "Nc1ccc(O)c(C(=O)O)c1"
  targetOrSystem: "Protein phosphatase 1D (Homo sapiens) (UniProt O15297)"
  answerLabel: "Y"

----------
System: PC15
Assay: qHTS profiling for inhibitors of Plasmodium falciparum proliferation (AID 504749); further: nearly all actives have a fitted effect of over 60% in size
Conditions: P. falciparum in erythrocytes, SYBR Green DNA, 72 h; series mostly up to 28.7 µM
Records with an inconclusive call do not appear. Active and inactive are the calls of the source. Calls come from the whole dose curve; as a rule, active = well fitted inhibition curve with a large enough effect; inconclusive = small, poorly fitted or top-dose-only effect; inactive = flat fitted curve, though single readings scatter.
Labels: YES (active), NO (inactive)

- compound: "CCCCCCOc1ccccc1C(N)=O"
  targetOrSystem: "PC15"
  answerLabel: "NO"
- compound: "c1ccc2sc(SSc3nc4ccccc4s3)nc2c1"
  targetOrSystem: "PC15"
  answerLabel: "NO"
- compound: "O=C(O)[C@H](CC(=O)N1C[C@H]2CCCC[C@H]2C1)Cc1ccccc1"
  targetOrSystem: "PC15"
  answerLabel: "NO"
- compound: "C[S+](CC[C@H](N)C(=O)O)C[C@H]1O[C@@H](n2cnc3c(N)ncnc32)[C@H](O)[C@@H]1O (some centres undefined)"
  targetOrSystem: "PC15"
  answerLabel: "NO"
- compound: "COc1cc2c3cc1Oc1cc(ccc1O)C[C@@H]1c4c(cc(OC)c(O)c4Oc4ccc(cc4)C[C@@H]3N(C)CC2)CC[N+]1(C)C"
  targetOrSystem: "PC15"
  answerLabel: "NO"
- compound: "CCC1C(=O)OCC1Cc1cncn1C (centres undefined)"
  targetOrSystem: "PC15"
  answerLabel: "NO"
- compound: "Oc1c(Br)cc(Br)c2cccnc12"
  targetOrSystem: "PC15"
  answerLabel: "NO"
- compound: "CC1(C)[C@@H](O)CC[C@]2(C)[C@H]3C(=O)C=C4[C@@H]5C[C@@](C)(C(=O)O)CC[C@]5(C)CC[C@@]4(C)[C@]3(C)CC[C@@H]12"
  targetOrSystem: "PC15"
  answerLabel: "NO"
- compound: "CCCSc1ccc2nc(NC(=O)OC)[nH]c2c1"
  targetOrSystem: "PC15"
  answerLabel: "NO"
- compound: "CC1(C)C[C@@H]1C(=O)N/C(=C\\CCCCSC[C@H](N)C(=O)O)C(=O)O"
  targetOrSystem: "PC15"
  answerLabel: "NO"
- compound: "Cc1nc2ccccc2n1Cc1ccc(Cl)cc1"
  targetOrSystem: "PC15"
  answerLabel: "NO"
- compound: "CN1[C@@H]2CC[C@H]1CC(OC(c1ccccc1)c1ccccc1)C2 (some centres undefined)"
  targetOrSystem: "PC15"
  answerLabel: "YES"
- compound: "Nc1c(CC(=O)O)cccc1C(=O)c1ccc(Br)cc1"
  targetOrSystem: "PC15"
  answerLabel: "NO"
- compound: "O=C(O)c1cc(O)c(O)c(O)c1"
  targetOrSystem: "PC15"
  answerLabel: "NO"
- compound: "COc1ccc(-c2cc(=S)ss2)cc1"
  targetOrSystem: "PC15"
  answerLabel: "NO"
- compound: "CCCCCCCCCCCCCCCCCC(=O)O"
  targetOrSystem: "PC15"
  answerLabel: "NO"
- compound: "CC1(C)S[C@@H]2[C@H](NC(=O)[C@H](NC(=O)N3CCN(S(C)(=O)=O)C3=O)c3ccccc3)C(=O)N2[C@H]1C(=O)O"
  targetOrSystem: "PC15"
  answerLabel: "NO"
- compound: "Cc1ccc(C(=O)c2ccc(CC(=O)O)n2C)cc1"
  targetOrSystem: "PC15"
  answerLabel: "NO"
- compound: "O=C(O)/C=C/C(O)c1ccc(Cl)cc1 (centres undefined)"
  targetOrSystem: "PC15"
  answerLabel: "NO"
- compound: "CCCCCCCCCCCC(=O)[O][Sn]([CH2]CCC)([CH2]CCC)[O]C(=O)CCCCCCCCCCC"
  targetOrSystem: "PC15"
  answerLabel: "NO"
- compound: "[O-][n+]1ccccc1SSc1cccc[n+]1[O-]"
  targetOrSystem: "PC15"
  answerLabel: "YES"
- compound: "O=C(/C=C/c1ccccc1)NCCO"
  targetOrSystem: "PC15"
  answerLabel: "NO"
- compound: "COc1cc(/C=C/C(=O)N2CCN(CC(=O)N3CCCC3)CC2)cc(OC)c1OC"
  targetOrSystem: "PC15"
  answerLabel: "NO"
- compound: "Cc1ccc(O)c(-n2nc3ccccc3n2)c1"
  targetOrSystem: "PC15"
  answerLabel: "NO"

----------
Assay: qHTS profiling for inhibitors of Plasmodium falciparum proliferation (AID 504749); further: nearly all actives have a fitted effect of over 60% in size;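 on activity, negative = inhibition: 0% = DMSO vehicle and full inhibition = artemisinin control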
Conditions: P. falciparum in erythrocytes, SYBR Green DNA, 72 h; at 28.7 µM (top of the series); parasite line A
Records with an inconclusive call do not appear. Where a SMILES comes first, the peptide text is derived from it. [ ]: non-standard residue; d: D form. pGlu = O=C1CC[C@@H](C(=O)O)N1; Thz = O=C(O)[C@@H]1CSCN1
Reported activity, negative = inhibition values follow for various molecules

- molecule: "CN1CCN(c2cc3c(nn2)Oc2ccccc2N3C)CC1"
  uom: "%"
  activity, negative = inhibition: 11.3
- molecule: "c1ccc2sc(SN3CCOCC3)nc2c1"
  uom: "%"
  activity, negative = inhibition: -12.8
- molecule: "Cc1ccccc1CNc1ncnc2c1ncn2C1OC(CO)C(O)C1O (centres undefined)"
  uom: "%"
  activity, negative = inhibition: 17.8
- molecule: "c1ccc2sc(SSc3nc4ccccc4s3)nc2c1"
  uom: "%"
  activity, negative = inhibition: 6.98
- molecule: "CCCCCCOc1ccccc1C(N)=O"
  uom: "%"
  activity, negative = inhibition: -23.7
- molecule: "CC(N)C(=O)OC(C)(C)Cc1ccc(Cl)cc1 (centres undefined)"
  uom: "%"
  activity, negative = inhibition: 3.68
- molecule: "Cc1ccc(O)c(-n2nc3ccccc3n2)c1"
  uom: "%"
  activity, negative = inhibition: 4.17
- molecule: "CC1OC1P(=O)(O)O (centres undefined)"
  uom: "%"
  activity, negative = inhibition: -11.9
- molecule: "CC(C(=O)O)c1ccc2c(c1)[nH]c1ccc(Cl)cc12 (centres undefined)"
  uom: "%"
  activity, negative = inhibition: 3.75
- molecule: "CCCCCCCCCCCCCCCCCC(=O)O"
  uom: "%"
  activity, negative = inhibition: -10.1
- molecule: "NC(=O)C(c1ccccc1)(c1ccccc1)[C@@H]1CCN(CCc2ccc3c(c2)CCO3)C1"
  uom: "%"
  activity, negative = inhibition: -17.4
- molecule: "CCOC(=O)c1ccccc1O"
  uom: "%"
  activity, negative = inhibition: 4.06
- molecule: "CC1(C)[C@@H](O)CC[C@]2(C)[C@H]3C(=O)C=C4[C@@H]5C[C@@](C)(C(=O)O)CC[C@]5(C)CC[C@@]4(C)[C@]3(C)CC[C@@H]12"
  uom: "%"
  activity, negative = inhibition: -3.83
- molecule: "COc1ccc(/C=C/C(=O)Nc2ccccc2C(=O)O)cc1OC"
  uom: "%"
  activity, negative = inhibition: 3.65
- molecule: "COc1cc(CNC(=O)CCCC/C=C/C(C)C)ccc1O"
  uom: "%"
  activity, negative = inhibition: -2.8
- molecule: "COc1ccc(-c2cc(=S)ss2)cc1"
  uom: "%"
  activity, negative = inhibition: -10.3
- molecule: "C=CC(N)CCC(=O)O (centres undefined)"
  uom: "%"
  activity, negative = inhibition: 0.626
- molecule: "Nc1c(CC(=O)O)cccc1C(=O)c1ccc(Br)cc1"
  uom: "%"
  activity, negative = inhibition: 12.5
- molecule: "O=C(Nc1ccc(C(=O)O)c(O)c1)c1ccccc1"
  uom: "%"
  activity, negative = inhibition: -20.7
- molecule: "O=C(/C=C/c1ccccc1)NCCO"
  uom: "%"
  activity, negative = inhibition: 4.35
- molecule: "Cc1[nH]cnc1CN1CCc2c(c3ccccc3n2C)C1=O"
  uom: "%"
  activity, negative = inhibition: 12
- molecule: "N=c1ccn2c(n1)O[C@H]1[C@H](O)[C@@H](CO)O[C@H]12"
  uom: "%"
  activity, negative = inhibition: 4.44
- molecule: "CCCCC[C@H](O)/C=C/[C@@H]1[C@@H](C/C=C\\CCCC(=O)O)[C@@H](O)C[C@H]1O"
  uom: "%"
  activity, negative = inhibition: 7.31
- molecule: "COc1cc(/C=C/C(=O)N2CCN(CC(=O)N3CCCC3)CC2)cc(OC)c1OC"
  uom: "%"
  activity, negative = inhibition: 1.12
- molecule: "O=C(O)/C=C/C(O)c1ccc(Cl)cc1 (centres undefined)"
  uom: "%"
  activity, negative = inhibition: 0.108
- molecule: "CCCC(=O)OC[C@@H](OC(=O)CCC)[C@@H](OC(=O)CCC)[C@H](Cn1c2nc(=O)[nH]c(=O)c-2nc2cc(C)c(C)cc21)OC(=O)CCC"
  uom: "%"
  activity, negative = inhibition: -28.7
- molecule: "O=C(O)c1ccccc1Nc1cccc(C(F)(F)F)c1"
  uom: "%"
  activity, negative = inhibition: -6.43
- molecule: "O=C1CC[C@@H](C(=O)N2CSC[C@H]2C(=O)O)N1 ([pGlu]-[Thz]-OH)"
  uom: "%"
  activity, negative = inhibition: 14.8
- molecule: "O=C(O)c1cc(O)c(O)c(O)c1"
  uom: "%"
  activity, negative = inhibition: -23.1
